Overview of recorded pKi for various compounds
- assayed-system: PknB (Mycobacterium tuberculosis, UniProt P9WI81)
- Construct: made in house
- Sequence (P9WI81 whole entry): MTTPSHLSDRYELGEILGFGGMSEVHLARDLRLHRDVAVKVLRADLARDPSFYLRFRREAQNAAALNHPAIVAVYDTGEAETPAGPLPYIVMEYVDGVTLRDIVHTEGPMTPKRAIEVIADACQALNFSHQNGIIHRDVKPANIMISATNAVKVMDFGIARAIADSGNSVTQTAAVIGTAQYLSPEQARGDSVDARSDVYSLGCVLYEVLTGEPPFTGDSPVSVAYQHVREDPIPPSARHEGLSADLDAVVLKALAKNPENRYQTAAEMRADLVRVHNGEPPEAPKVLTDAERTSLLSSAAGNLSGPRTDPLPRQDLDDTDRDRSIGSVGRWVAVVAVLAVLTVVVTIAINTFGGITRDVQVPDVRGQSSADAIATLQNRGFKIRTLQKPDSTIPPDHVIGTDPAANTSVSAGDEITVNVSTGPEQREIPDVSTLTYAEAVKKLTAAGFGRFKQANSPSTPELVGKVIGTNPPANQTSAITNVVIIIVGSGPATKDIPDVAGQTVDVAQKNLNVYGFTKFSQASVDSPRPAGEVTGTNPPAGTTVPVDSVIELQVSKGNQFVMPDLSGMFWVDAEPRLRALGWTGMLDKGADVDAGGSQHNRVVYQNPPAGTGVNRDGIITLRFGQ
- experiment: biochemical
- Parameters: species or system M. tuberculosis
- stated-conditions: 3 nM PknB, 6 uM GarA, 3 μM ATP, 30 min; competitive tight-binding fit; several symbols in a cell = repeat determinations; read-out: Ki Values
pKi: −log10 of the molar value.

Example cases with answers are listed next.
{"columns": ["compound", "assay-result"],
 "data": [
  ["CC(C)(C)NS(=O)(=O)C/C=C/c1cccc(Nc2cc(C3CC3)[nH]n2)n1", "6.30 to 7.00"],
  ["O=[N+]([O-])c1ccc(-c2ncc(Cl)c(Nc3cc(C4CC4)[nH]n3)n2)s1", "8.00 to 9.00"],
  ["CC(C)(C)NS(=O)(=O)c1ccc(-c2ccc([N+](=O)[O-])c(Nc3cc(C4CC4)n[nH]3)n2)s1", "7.00 to 7.30"],
  ["C#Cc1cnc(-c2ccc(S(=O)(=O)NC)s2)nc1Nc1cc(C2CC2)n[nH]1", "8.00 to 9.00"],
  ["OCc1ccc(-c2ncc(Cl)c(Nc3cc(C4CC4)[nH]n3)n2)s1", "7.30 to 8.00"]
]}

Problem: May I ask what pKi has been recorded for "NS(=O)(=O)c1cccc(-c2ncc(Cl)c(Nc3cc(C4CC4)[nH]n3)n2)c1" ?
Result: 7.30 to 8.00

Problem: May I ask what pKi has been recorded for "Fc1cnc(-c2cccs2)nc1Nc1cc(C2CC2)[nH]n1" ?
Result: 7.30 to 8.00

Problem: May I ask what pKi has been recorded for "C#Cc1cnc(-c2ccc(Cl)c(C(N)=O)c2)nc1Nc1cc(C2CC2)n[nH]1" ?
Result: 7.30 to 8.00

Problem: May I ask what pKi has been recorded for "C=CCCC(=O)c1ncc(Cl)c(Nc2cc(C3CC3)[nH]n2)n1" ?
Result: 6.00 to 6.30

Problem: May I ask what pKi has been recorded for "C#Cc1cnc(-c2ccc(S(=O)(=O)NC(C)=O)s2)nc1Nc1cc(C2CC2)[nH]n1" ?
Result: 6.30 to 7.00

Problem: May I ask what pKi has been recorded for OC1/C=C\c2c(n[nH]c2C2CC2)Nc2nc(ncc2Cl)-c2ccccc21 (stereo not drawn) ?
Result: < 5.40

Problem: May I ask what pKi has been recorded for "NS(=O)(=O)c1ccc(-c2ncc(Br)c(Nc3cc(C4CC4)[nH]n3)n2)s1" ?
Result: 8.00 to 9.00

Problem: May I ask what pKi has been recorded for C#Cc1cnc(-c2ccc(C(O)C(=O)O)s2)nc1Nc1cc(C2CC2)[nH]n1 (stereo not drawn) ?
Result: 7.00 to 7.30

Problem: May I ask what pKi has been recorded for "NS(=O)(=O)c1cc(-c2nccc(Nc3cc(C4CC4)[nH]n3)n2)ccc1O" ?
Result: 7.30 to 8.00

Problem: May I ask what pKi has been recorded for "C#Cc1cnc(C2=CCN(C(=O)OC(C)(C)C)CC2)nc1Nc1cc(C2CC2)[nH]n1" ?
Result: 6.30 to 7.00

Problem: May I ask what pKi has been recorded for C[S+]([O-])c1ccc(-c2ncc(Cl)c(Nc3cc(C4CC4)[nH]n3)n2)s1 (stereo not drawn) ?
Result: 8.00 to 9.00

Problem: May I ask what pKi has been recorded for "CN(C)c1cc(Nc2cc(C3CC3)n[nH]2)nc(-c2ccc(S(N)(=O)=O)s2)n1" ?
Result: 5.40 to 5.70

Problem: May I ask what pKi has been recorded for "N#CCc1ccc(-c2nccc(Nc3cc(C4CC4)[nH]n3)n2)cc1" ?
Result: 7.30 to 8.00

Problem: May I ask what pKi has been recorded for "CC(C)(C)OC(=O)/N=C(\N)c1ccc(-c2ncc(Cl)c(Nc3cc(C4CC4)[nH]n3)n2)s1" ?
Result: 6.00 to 6.30

Problem: May I ask what pKi has been recorded for "NS(=O)(=O)c1ccc(-c2ncc(/C=C/CO)c(Nc3cc(C4CC4)[nH]n3)n2)s1" ?
Result: 8.00 to 9.00

Problem: May I ask what pKi has been recorded for "NS(=O)(=O)c1ccccc1-c1ncc(Cl)c(Nc2cc(C3CC3)[nH]n2)n1" ?
Result: < 5.40

Problem: May I ask what pKi has been recorded for "CNc1cc(Nc2cc(C3CC3)n[nH]2)nc(-c2ccc(S(N)(=O)=O)s2)n1" ?
Result: 5.70 to 6.00

Problem: May I ask what pKi has been recorded for COC(=O)CC1c2cnc(-c3ccccc3)nc2Nc2cc(C3CC3)nn21 (stereo not drawn) ?
Result: < 5.40

Problem: May I ask what pKi has been recorded for "CC(C)(C#N)c1ccc(-c2ncc(Cl)c(Nc3cc(C4CC4)[nH]n3)n2)s1" ?
Result: 8.00 to 9.00

Problem: May I ask what pKi has been recorded for "O=C(O)c1ccc(Nc2ncc(Cl)c(Nc3cc(C4CC4)[nH]n3)n2)cc1" ?
Result: 6.30 to 7.00

Problem: May I ask what pKi has been recorded for "CCCc1cnc(N2CCCCC2)nc1Nc1cc(C2CC2)[nH]n1" ?
Result: 5.70 to 6.00

Problem: May I ask what pKi has been recorded for "Cc1cnc(-c2cccc(S(N)(=O)=O)c2)nc1Nc1cc(C2CC2)[nH]n1" ?
Result: 7.30 to 8.00

Problem: May I ask what pKi has been recorded for "C#Cc1c(C)nc(-c2ccc(S(=O)(=O)NC(C)(C)C)s2)nc1Nc1cc(C2CC2)[nH]n1" ?
Result: 7.30 to 8.00

* * *

- assayed-system: PknB (Mycobacterium tuberculosis)
- Construct: made in house
- experiment: biochemical
- Design: species or system M. tuberculosis
- stated-conditions: 3 nM PknB, 6 uM GarA, 3 μM ATP, 30 min; competitive tight-binding fit; several symbols in a cell = repeat determinations; read-out: Ki Values
pKi: −log10 of the molar value.
Overview of recorded pKi for various compounds

Problem: Form field - read-out: pKi; system: PknB (Mycobacterium tuberculosis); submitted item: "C#Cc1cnc(-c2ccc(C#N)s2)nc1Nc1cc(C2CC2)[nH]n1"
Result: 8.00 to 9.00

Problem: Form field - read-out: pKi; system: PknB (Mycobacterium tuberculosis); submitted item: "NS(=O)(=O)c1cccc(Nc2nccc(Nc3cc(C4CC4)n[nH]3)n2)c1"
Result: 7.00 to 7.30

Problem: Form field - read-out: pKi; system: PknB (Mycobacterium tuberculosis); submitted item: CC(O)c1ccc(-c2ncc(Cl)c(Nc3cc(C4CC4)[nH]n3)n2)o1 (centres unmarked)
Result: 6.30 to 7.00

Problem: Form field - read-out: pKi; system: PknB (Mycobacterium tuberculosis); submitted item: "NS(=O)(=O)c1ccc(Nc2nccc(Nc3cc(C4CC4)[nH]n3)n2)cc1"
Result: 8.00 to 9.00

Problem: Form field - read-out: pKi; system: PknB (Mycobacterium tuberculosis); submitted item: "O=[N+]([O-])c1csc(-c2ncc(Cl)c(Nc3cc(C4CC4)[nH]n3)n2)c1"
Result: 7.30 to 8.00

Problem: Form field - read-out: pKi; system: PknB (Mycobacterium tuberculosis); submitted item: CC(O)c1ccc(-c2ncc(F)c(Nc3cc(C4CC4)[nH]n3)n2)s1 (stereo in doubt) [Compound 147]
Result: 7.30 to 8.00

Problem: Form field - read-out: pKi; system: PknB (Mycobacterium tuberculosis); submitted item: "NS(=O)(=O)c1ccc(-c2ncc(Cl)c(Nc3cc(C4CC4)[nH]n3)n2)o1"
Result: 7.30 to 8.00

Problem: Form field - read-out: pKi; system: PknB (Mycobacterium tuberculosis); submitted item: "NS(=O)(=O)c1cccc(-c2nccc(Nc3cc(C4CC4)[nH]n3)n2)c1"
Result: 7.30 to 8.00

* * *

- assayed-system: PknB (Mycobacterium tuberculosis)
- Construct: made in house
- experiment: biochemical
- Design: species or system M. tuberculosis
- stated-conditions: 3 nM PknB, 6 uM GarA, 3 μM ATP, 30 min; competitive tight-binding fit; several symbols in a cell = repeat determinations; read-out: Ki Values
Overview of recorded Ki for various molecules

Example cases with answers are listed next.
{"columns": ["chemical-structure", "assayed-system", "observable", "assay-result"],
 "data": [
  ["NS(=O)(=O)c1ccc(-c2ncc(Cl)c(Nc3cc(C4CC4)[nH]n3)n2)cn1", "PknB (Mycobacterium tuberculosis)", "Ki", "10 to 50 nM"],
  ["NNS(=O)(=O)c1ccc(-c2ncc(Cl)c(Nc3cc(C4CC4)[nH]n3)n2)s1", "PknB (Mycobacterium tuberculosis)", "Ki", "10 to 50 nM"]
]}

Problem: May I ask what Ki has been recorded for "NS(=O)(=O)c1ccc(-c2ncc(Cl)c(Nc3cc(C4CC4)[nH]n3)n2)cc1" ?
Result: 10 to 50 nM

Problem: May I ask what Ki has been recorded for "Brc1c(C2CC2)n[nH]c1Nc1ccnc(-c2ccccc2)n1" ?
Result: > 4000 nM
